# pIC50 annotations
target: TNFα (Homo sapiens, UniProt P01375); test: TNFα Induced HEK Blue Cellular Assay; assay type: cell-based; settings: HEK Blue TNFα reporter cells, TNFα 100 pg/ml, 24 hrs at 37° C., secreted alkaline phosphatase (QUANTI-Blue) read at 620 nm; read-out: IC50 value
Sequence (P01375 77-233 limits assumed): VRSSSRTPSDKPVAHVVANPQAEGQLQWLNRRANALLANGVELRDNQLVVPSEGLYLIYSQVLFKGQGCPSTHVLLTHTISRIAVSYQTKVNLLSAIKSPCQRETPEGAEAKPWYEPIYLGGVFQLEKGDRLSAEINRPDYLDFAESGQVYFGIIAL
pIC50: −log10 of the molar value.

1. CN1C(=O)c2cccc(OC(F)F)c2[C@H]2C[C@@H]1c1nc3ccc(-c4ccc(P(C)(C)=O)nc4)cc3n12
> 7.00
2. [2H]C([2H])([2H])N1C(=O)c2cccc(OC(F)F)c2[C@H]2C[C@@H]1c1nc3ccc(-c4cc(C)c(P(C)(C)=O)c(F)n4)cc3n12
> 7.00

Here's the next entry for you.
The recorded pIC50 for `CN1C(=O)c2cccc(OC(F)F)c2[C@H]2C[C@@H]1c1nc3ccc(-c4ccc(P(C)(C)=O)c(F)c4F)cc3n12` is > 7.00

---

Biological target: TNFα (Homo sapiens, UniProt P01375)
Test: TNFα Induced HEK Blue Cellular Assay
Type: cell-based
Conditions: HEK Blue TNFα reporter cells, TNFα 100 pg/ml, 24 hrs at 37° C., secreted alkaline phosphatase (QUANTI-Blue) read at 620 nm; read-out: IC50 value
Experimental: TNFα Induced HEK Blue Cellular Assay Test articles were diluted in DMSO and serially diluted into 384 well assay plate (Corning 3765), at final concentrations ranging from 30 mM to 0.5 nM. […]
pIC50: −log10 of the molar value.
# pIC50 annotations

Answered cases to consult:
1) CN1C(=O)c2cccc(OC(F)F)c2[C@H]2C[C@@H]1c1nc3ccc(-c4ccc(P(C)(C)=O)cc4Cl)cc3n12 [Example 27]
> 7.00
2) [2H]C([2H])([2H])N1C(=O)c2cccc(OC(F)F)c2[C@H]2C[C@@H]1c1nc3ccc(-c4cc(F)c(P(C)(C)=O)c(C#N)c4)cc3n12 [Example 133]
> 7.00
3) CN1C(=O)c2cccc(OC(F)F)c2[C@H]2C[C@@H]1c1nc3ccc(-c4cnc(P(C)(C)=O)nc4)cc3n12 [Example 8]
6.00 to 7.00
4) [2H]C([2H])([2H])N1C(=O)c2cccc(OC(F)F)c2[C@H]2C[C@@H]1c1nc3ccc(-c4ccc(CP(C)(C)=O)cc4)cc3n12 [Example 70]
> 7.00
5) [2H]C([2H])([2H])N1C(=O)c2cccc(OC(F)F)c2[C@H]2C[C@@H]1c1nc3ccc(-c4ccc(C(C)P(C)(C)=O)c(F)c4)cc3n12 (single isomer, unassigned) [Example 99]
> 7.00

Here's the next entry for you.
The recorded pIC50 for CCP(=O)(CC)c1ccc(-c2ccc3nc4n(c3c2)[C@@H]2C[C@H]4NC(=O)c3cccc(OC(F)F)c32)c(F)c1 [Example 138] is > 7.00

---

target: TNFα (Homo sapiens, UniProt P01375); assay: TNFα Induced HEK Blue Cellular Assay; format: cell-based; conditions: HEK Blue TNFα reporter cells, TNFα 100 pg/ml, 24 hrs at 37° C., secreted alkaline phosphatase (QUANTI-Blue) read at 620 nm; read-out: IC50 value
# IC50 annotations

Answered cases to consult:
1) Cc1cc(P(C)(C)=O)ccc1-c1ccc2nc3n(c2c1)[C@@H]1C[C@H]3NC(=O)c2cccc(OC(F)F)c21
< 100 nM
2) [2H]C([2H])([2H])N1C(=O)c2cccc(OC(F)F)c2[C@H]2C[C@@H]1c1nc3ccc(-c4ccc(P(=O)(CC)CC)c(F)c4)cc3n12
< 100 nM

The recorded IC50 for [2H]C([2H])([2H])N1C(=O)c2cccc(OC(F)F)c2[C@H]2C[C@@H]1c1nc3ccc(-c4ccc(C(C)P(C)(C)=O)cc4)cc3n12 (single isomer, unassigned) [Example 86] is < 100 nM

The recorded IC50 for `[2H]C([2H])([2H])N1C(=O)c2cccc(OC(F)F)c2[C@H]2C[C@@H]1c1nc3ccc(-c4ccc(P(C)(C)=O)c(C(F)(F)F)c4)cc3n12` is 100 to 1000 nM

The recorded IC50 for `[2H]C([2H])([2H])N1C(=O)c2cccc(OC(F)F)c2[C@H]2C[C@@H]1c1nc3ccc(-c4ccc(OCP(C)(C)=O)nc4)cc3n12` is < 100 nM

The recorded IC50 for `CN1C(=O)c2cccc(OC(F)F)c2[C@H]2C[C@@H]1c1nc3ccc(-c4ccc(CP(C)(C)=O)nc4)cc3n12` is < 100 nM

The recorded IC50 for `[2H]C([2H])([2H])N1C(=O)c2cccc(OC)c2[C@H]2C[C@@H]1c1nc3ccc(-c4cc(F)c(P(C)(C)=O)cc4F)cc3n12` is 100 to 1000 nM

---

# pIC50 annotations
molecular target: TNFα (Homo sapiens, UniProt P01375); test: TNFα Induced HEK Blue Cellular Assay; type: cell-based; conditions: HEK Blue TNFα reporter cells, TNFα 100 pg/ml, 24 hrs at 37° C., secreted alkaline phosphatase (QUANTI-Blue) read at 620 nm; read-out: IC50 value
pIC50: −log10 of the molar value.

Answered cases to consult:
1. [2H]C([2H])([2H])N1C(=O)c2cccc(OC(F)F)c2[C@H]2C[C@@H]1c1nc3ccc(-c4cc(F)c(C(C)P(C)(C)=O)c(F)c4)cc3n12 (single isomer, unassigned) [Example 112]
> 7.00
2. CP(C)(=O)COc1ncc(-c2ccc3nc4n(c3c2)[C@@H]2C[C@H]4NC(=O)c3cccc(OC(F)F)c32)s1
> 7.00
3. CN1C(=O)c2cccc(OC(F)F)c2[C@H]2C[C@@H]1c1nc3ccc(-c4cc(F)c(P(C)(C)=O)cc4F)cc3n12
> 7.00
4. CN1C(=O)c2cccc(OC(F)F)c2[C@H]2C[C@@H]1c1nc3ccc(-c4ccc(OCCCP(C)(C)=O)nc4)cc3n12
6.00 to 7.00
5. [2H]C([2H])([2H])N1C(=O)c2cccc(OC(F)F)c2[C@H]2C[C@@H]1c1nc3ccc(-c4ccc(P(C)(C)=O)cc4F)cc3n12
> 7.00

The recorded pIC50 for `[2H]C([2H])([2H])N1C(=O)c2cccc(OC(F)F)c2[C@H]2C[C@@H]1c1nc3ccc(-c4cc(F)c(CP(C)(C)=O)cc4C)cc3n12` is > 7.00

The recorded pIC50 for `CP(C)(=O)Cc1cc(F)c(-c2ccc3nc4n(c3c2)[C@@H]2C[C@H]4NC(=O)c3cccc(OC(F)F)c32)cc1F` is 6.00 to 7.00

The recorded pIC50 for `CN1C(=O)c2cccc(OC(F)F)c2[C@H]2C[C@@H]1c1nc3ccc(-c4ccc(P(C)(C)=O)cc4F)cc3n12` is > 7.00

The recorded pIC50 for `[2H]C([2H])([2H])N1C(=O)c2cccc(OC(F)F)c2[C@H]2C[C@@H]1c1nc3ccc(-c4cc(F)c(P(C)(C)=O)cc4F)nc3n12` is > 7.00

The recorded pIC50 for `[2H]C([2H])([2H])N1C(=O)c2cccc(OC(F)F)c2[C@H]2C[C@@H]1c1nc3ccc(-c4ccc(P(C)(C)=O)nc4F)cc3n12` is > 7.00

The recorded pIC50 for `[2H]C([2H])([2H])N1C(=O)c2cccc(OC(F)F)c2[C@H]2C[C@@H]1c1nc3ccc(-c4cnc(P(C)(C)=O)cc4C)cc3n12` is 6.00 to 7.00

The recorded pIC50 for `[2H]C([2H])([2H])N1C(=O)c2cccc(OC(F)F)c2[C@H]2C[C@@H]1c1nc3ccc(-c4cc(N)c(P(C)(C)=O)c(F)c4)cc3n12` is 4.52 to 5.00

The recorded pIC50 for `[2H]C([2H])([2H])N1C(=O)c2cccc(OC(F)F)c2[C@H]2C[C@@H]1c1nc3ccc(-c4ccc(P(C)(C)=O)c(F)c4F)cc3n12` is > 7.00

The recorded pIC50 for `[2H]C([2H])([2H])N1C(=O)c2cccc(OCC)c2[C@H]2C[C@@H]1c1nc3ccc(-c4cc(F)c(P(C)(C)=O)cc4F)cc3n12` is > 7.00

The recorded pIC50 for [2H]C([2H])([2H])N1C(=O)c2cccc(OC(F)F)c2[C@H]2C[C@@H]1c1nc3ccc(-c4ccc(C(C)P(C)(C)=O)cc4)cc3n12 (single isomer, unassigned) [Example 85] is > 7.00

The recorded pIC50 for `CP(C)(=O)Cc1ccc(-c2ccc3nc4n(c3c2)[C@@H]2C[C@H]4NC(=O)c3cccc(OC(F)F)c32)cc1F` is > 7.00

---

molecular target: UniProt:P01375; experiment: TNFα Induced HEK Blue Cellular Assay; format: cell-based; details: HEK Blue TNFα reporter cells, TNFα 100 pg/ml, 24 hrs at 37° C., secreted alkaline phosphatase (QUANTI-Blue) read at 620 nm; read-out: IC50 value
pIC50: −log10 of the molar value.
Measurement type: pIC50

Answered cases to consult:
1. CP(C)(=O)Cc1ccc(-c2ccc3nc4n(c3c2)[C@@H]2C[C@H]4NC(=O)c3cccc(OC(F)F)c32)c(F)c1 [Example 96]
6.00 to 7.00
2. CN1C(=O)c2cccc(OC(F)F)c2[C@H]2C[C@@H]1c1nc3ccc(-c4cnc(OCP(C)(C)=O)s4)cc3n12 [Example 25]
> 7.00
3. CN1C(=O)c2cccc(OC(F)F)c2[C@H]2C[C@@H]1c1nc3ccc(-c4cnc(P(C)(C)=O)c(F)c4)cc3n12 [Example 4]
> 7.00
4. CN1C(=O)c2cccc(OC(F)F)c2[C@H]2C[C@@H]1c1nc3cc(F)c(-c4ccc(P(C)(C)=O)c(F)c4)cc3n12 [Example 57]
> 7.00
5. CP(C)(=O)c1ncc(-c2ccc3nc4n(c3c2)[C@@H]2C[C@H]4NC(=O)c3cccc(OC(F)F)c32)cn1 [Example 1]
6.00 to 7.00

Here's the next entry for you.
So the reported pIC50 for [2H]C([2H])([2H])N1C(=O)c2cccc(OC(F)F)c2[C@H]2C[C@@H]1c1nc3ccc(-c4ccc(P(C)(C)=O)c(F)c4)c(F)c3n12 [Example 139] , on UniProt:P01375, turned out to be > 7.00

Numbers sourced from patent US12384808B2.
